Recorded measurements of TGI, one per entry
Tested on: SK-MEL-5 melanoma
Assay: NCI tumour cell line growth inhibition, 48 h
Value expressed in µM; do not type the unit.

Reference set, count: 2
| Compound | Numeric result |
| --- | --- |
| O=[N+]([O-])c1ccc(C2SCc3nc4ccccc4n32)cc1 (stereo not given) | 39.2 |
| CC(=O)c1c2c(cc3c1CC1(Cc4cc5c(cc4C1)C(=O)CCC5)C3)CCCC2 (stereo not given) | 7.38 |

Here is the next item to consider.
Request: Dear colleague, please send me the reported TGI for O=C(Sc1n[nH]c(=O)[nH]c1=O)c1cccc2nc3ccccc3nc12 when you can.
Result: 14.5
